List of molar heat capacity at constant pressure values.
Assay: molar heat capacity at constant pressure
Conditions: 1.93 K; 101.33 kPa; Crystal; relaxation calorimetry
API: value field is a number in J/K/mol; no unit string.

State the recorded molar heat capacity at constant pressure for this entry: [Cu] [copper]
0.001713

State the recorded molar heat capacity at constant pressure for this entry: O[C@H]1[C@H](O)[C@H](O)OC[C@H]1O [β-D-arabinopyranose]
0.00664

State the recorded molar heat capacity at constant pressure for this entry: [Al+3].[Al+3].[O-2].[O-2].[O-2] [aluminum oxide (Al2O3)]
7.666e-05

State the recorded molar heat capacity at constant pressure for this entry: O=C(O)c1ccccc1 [benzoic acid]
0.01333
